Where do the numbers come from? From patent US12195469B2.

# SYSTEM: PDE9A (Homo sapiens (Human), UniProt O76083)
# Sequence (O76083 whole entry): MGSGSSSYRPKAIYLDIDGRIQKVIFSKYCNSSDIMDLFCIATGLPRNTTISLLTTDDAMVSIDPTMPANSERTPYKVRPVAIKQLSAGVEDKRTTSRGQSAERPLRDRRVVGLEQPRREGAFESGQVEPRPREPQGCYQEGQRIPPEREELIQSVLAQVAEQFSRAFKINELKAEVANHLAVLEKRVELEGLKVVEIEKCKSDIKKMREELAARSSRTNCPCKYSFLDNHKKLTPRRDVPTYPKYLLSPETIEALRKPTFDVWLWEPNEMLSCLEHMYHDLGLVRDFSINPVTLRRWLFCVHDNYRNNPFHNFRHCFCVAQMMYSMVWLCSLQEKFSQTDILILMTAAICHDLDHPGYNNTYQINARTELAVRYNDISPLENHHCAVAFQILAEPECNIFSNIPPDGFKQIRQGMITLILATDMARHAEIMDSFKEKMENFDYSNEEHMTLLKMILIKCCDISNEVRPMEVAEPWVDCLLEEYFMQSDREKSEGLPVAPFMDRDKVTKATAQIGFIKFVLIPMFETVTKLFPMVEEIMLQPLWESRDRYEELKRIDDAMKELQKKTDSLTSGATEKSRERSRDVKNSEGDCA
# ASSAY METHOD TEXT: PDE9A inhibition, fluorescence polarization assay (IMAP-FP screening express kit)
# Type: biochemical
# CONDITIONS USED: 10 μM of the compound
RESULT TYPE: inhibition at 10 µM (%)

O=c1[nH]c(SCc2nc3cc(Cl)c([N+](=O)[O-])cc3o2)nc2c1cnn2-c1ccccc1 [Example 31] :: 38.9

1: O=c1[nH]c(SCc2nc3ccc([N+](=O)[O-])cc3o2)nc2c1cnn2-c1ccccc1 [Example 28]
2: O=c1[nH]c(SCc2nc3cc(Cl)cc(Cl)c3o2)nc2c1cnn2-c1ccccc1 [Example 32]
3: COc1ccc2nc(CSc3nc4c(cnn4-c4ccccc4)c(=O)[nH]3)oc2c1 [Example 35]
4: O=c1[nH]c(SCc2nc3cc(-c4ccccc4)ccc3o2)nc2c1cnn2-c1ccccc1 [Example 25]
Hi! Can you put these in order of inhibition at 10 µM, lowest number first? List the labels in the requested order. 4, 2, 1, 3
(4: 10.3%, 2: 27.7%, 1: 51.5%, 3: 83.6%)

###

Observed pIC50 for UniProtKB O76083, reported per entry below.
pIC50: −log10 of the molar value.
RESULT TYPE: pIC50

Would you please look over these solved cases?
O=c1[nH]c(SCc2nc3cc(Cl)c([N+](=O)[O-])cc3o2)nc2c1cnn2C1CCOCC1 [Example 51] :: 7.46
O=c1[nH]c(SCc2nc3ccc([N+](=O)[O-])cc3o2)nc2c1cnn2C1CCC(F)(F)CC1 [Example 37] :: 7.13
CC(Sc1nc2c(cnn2C2CCOCC2)c(=O)[nH]1)c1nc2ccccc2o1 (centres unmarked) [Example 21] :: 8.52

1: Cc1ccc2nc(C(C)Sc3nc4c(cnn4C4CCC(F)(F)CC4)c(=O)[nH]3)oc2c1 (centres unmarked) [Example 22]
2: O=c1[nH]c(SCc2nc3cc(Cl)c([N+](=O)[O-])cc3o2)nc2c1cnn2C1CCC(F)(F)CC1 [Example 40]
Given 1 and given 2 , which shows the smaller recorded pIC50? Lab note: record the label of whichever item you select. 2
(2: 5.78, 1: 8.22)

1: O=c1[nH]c(SCc2nc3cc([N+](=O)[O-])ccc3o2)nc2c1cnn2-c1ccccc1 [Example 29]
2: Cc1ccc2nc(CSc3nc4c(cnn4C4CCC(F)(F)CC4)c(=O)[nH]3)oc2c1 [Example 13]
Given 1 and given 2 , which shows the smaller recorded pIC50? Lab note: record the label of whichever item you select. 1

1: Cc1ccc2nc(CSc3nc4c(cnn4C4CCCCC4)c(=O)[nH]3)oc2c1 [Example 16]
2: O=c1[nH]c(SCc2nc3cc(Br)ccc3o2)nc2c1cnn2-c1ccccc1 [Example 7]
Kindly identify which of 1 and 2 has the larger recorded pIC50 value. Lab note: record the label of whichever item you select. 1
(1: 8.22, 2: 7.00)

1: O=c1[nH]c(SCc2nc3ccccc3o2)nc2c1cnn2C1CCC(F)(F)CC1 [Example 8]
2: CC(Sc1nc2c(cnn2-c2ccccc2)c(=O)[nH]1)c1nc2ccccc2o1 (centres unmarked) [Example 19]
3: Cc1cccc2oc(CSc3nc4c(cnn4C4CCOCC4)c(=O)[nH]3)nc12 [Example 52]
4: COc1ccc2nc(CSc3nc4c(cnn4C4CCC(F)(F)CC4)c(=O)[nH]3)oc2c1 [Example 46]
Arrange the 4 compounds from largest to smallest pIC50. List the labels in the requested order. 4, 1, 3, 2
(4: 8.52, 1: 8.30, 3: 7.77, 2: 7.55)

###

Observed pIC50 for PDE9A (Homo sapiens (Human), UniProt O76083), reported per entry below.
pIC50: −log10 of the molar value.
RESULT TYPE: pIC50

a: O=c1[nH]c(SCc2nc3c([N+](=O)[O-])cccc3o2)nc2c1cnn2C1CCOCC1
b: O=c1[nH]c(SCc2nc3ccc([N+](=O)[O-])cc3o2)nc2c1cnn2C1CCOCC1
c: CC(Sc1nc2c(cnn2C2CCC(F)(F)CC2)c(=O)[nH]1)c1nc2ccccc2o1 (centres unmarked)
From the items above, give an ordering by pIC50 that starts at the lowest reported number. List the labels in the requested order. a, b, c

###

Observed IC50 for UniProtKB O76083, reported per entry below.
RESULT TYPE: IC50 (nM)

Would you please look over these solved cases?
Cc1ccc2nc(C(C)Sc3nc4c(cnn4C4CCOCC4)c(=O)[nH]3)oc2c1 (centres unmarked) :: 2
CC(C)(C)c1ccc2oc(CSc3nc4c(cnn4C4CCC(F)(F)CC4)c(=O)[nH]3)nc2c1 :: 130

I: O=c1[nH]c(SCc2nc3cc(F)ccc3o2)nc2c1cnn2-c1ccccc1
II: Cc1ccc2nc(CSc3nc4c(cnn4C4CCSCC4)c(=O)[nH]3)oc2c1
Kindly identify which of I and II has the larger recorded IC50 value. Lab note: record the label of whichever item you select. I
